This listing pairs binders with measured pKd.
Target: T1, N-terminal domain of carcinoembryonic antigen (N-CEA) (human, UniProt P06731 34-144)
T1 sequence: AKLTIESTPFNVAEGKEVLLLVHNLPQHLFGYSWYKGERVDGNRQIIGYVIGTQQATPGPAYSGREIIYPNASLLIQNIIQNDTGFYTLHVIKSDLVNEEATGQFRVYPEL
Assay: SPR
pKd: −log10 of the molar value.
measuredEndpoint: pKd

{"binder": "N-CEA Q44R (domain or fragment) AKLTIESTPFNVAEGKEVLLLVHNLPQHLFGYSWYKGERVDGNRRIIGYVIGTQQATPGPAYSGREIIYPNASLLIQNIIQNDTGFYTLHVIKSDLVNEEATGQFRVYPEL", "measuredEndpoint": "pKd", "experimentalValue": "~3.89"}
{"binder": "N-CEA F29R (domain or fragment) AKLTIESTPFNVAEGKEVLLLVHNLPQHLRGYSWYKGERVDGNRQIIGYVIGTQQATPGPAYSGREIIYPNASLLIQNIIQNDTGFYTLHVIKSDLVNEEATGQFRVYPEL", "measuredEndpoint": "pKd", "experimentalValue": "~3.70"}
{"binder": "N-CEA I91A (domain or fragment) AKLTIESTPFNVAEGKEVLLLVHNLPQHLFGYSWYKGERVDGNRQIIGYVIGTQQATPGPAYSGREIIYPNASLLIQNIIQNDTGFYTLHVAKSDLVNEEATGQFRVYPEL", "measuredEndpoint": "pKd", "experimentalValue": 4.26}
{"binder": "N-CEA S32N (domain or fragment) AKLTIESTPFNVAEGKEVLLLVHNLPQHLFGYNWYKGERVDGNRQIIGYVIGTQQATPGPAYSGREIIYPNASLLIQNIIQNDTGFYTLHVIKSDLVNEEATGQFRVYPEL", "measuredEndpoint": "pKd", "experimentalValue": "~3.70"}
